meta.source: patent US20240101668A1

- Test target: T1, huCLL1-K244-Avi-Tev-His (human, UniProt Q5QGZ9 65-265)
- T1 construct: extracellular domain
- T1 sequence (looked up): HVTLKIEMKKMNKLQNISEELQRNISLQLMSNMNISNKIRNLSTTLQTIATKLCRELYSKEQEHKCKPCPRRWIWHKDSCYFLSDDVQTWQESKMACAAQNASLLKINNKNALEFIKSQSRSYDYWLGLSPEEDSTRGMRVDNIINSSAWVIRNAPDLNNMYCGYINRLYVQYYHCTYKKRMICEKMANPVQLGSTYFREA
- Assay summary: BLI
Metric name: binding result

Binder: Polypeptide No. 150 (scFv, V domains shown, scFv) VH: QVQLVQSGAEVKKPGASVKVSCKASGYIFTSQYIHWVRQAPGQGLEWMGWINPNSGGTNYAQKFQGRVTMTRDTSTSTVYMELSSLRSEDTAVYYCARDPWGAYGGDAFDIWGQGTMVTVSS VL: DIQMTQSPSSLSASVGDRVTITCRASQGISNNLNWYQQKPGKAPKLLIYDASHLDTGVPSRFSGSGSGTDFTLTISSLQPEDFATYYCQQNYSPPPTFGQGTRLEIKR
Test value: binds

Binder: Polypeptide No. 156 (scFv, V domains shown, scFv) VH: QVQLVQSGAEVKKPGASVKVSCKASGYTFTGYFIHWVRQAPGQGLEWMGWMNPNSGNTGYAQKFQGRVTMTRDTSTSTVYMELSSLRSEDTAVYYCARGDYADWFDPWGQGTLVTVSS VL: DIQMTQSPSSLSASVGDRVTITCRASQSISTWLAWYQQKPGKAPKLLIYDAFTLETGVPSRFSGSGSGTDFTLTISSLQPEDFATYYCQQSYSTPLTFGQGTKVEIKR
Test value: binds

Binder: Polypeptide No. 161 (scFv, V domains shown, scFv) VH: QVQLVQSGAEVKKPGASVKVSCKASGYTFTSYDINWVRQAPGQGLEWMGMINPNSGGTSYAQKFQGRVTMTRDTSTSTVYMELSSLRSEDTAVYYCARELLGESFDYWGQGTLVTVSS VL: DIQMTQSPSSLSASVGDRVTITCRASQGISSYLAWYQQKPGKAPKLLIYGASILQSGVPSRFSGSGSGTDFTLTISSLQPEDFATYYCQQSYSTSFTFGPGTKVDIKR
Test value: binds
